target: CD63 on MDA-MB-231 cells (UniProt P08962); assay: flow cytometry; details: MDA-MB-231 cells; PBS pH 7.4, 2.0 mM MgCl2, 0.02% Tween 20, 100 ug/mL salmon sperm DNA; ELISA 0.5 h; cells at RT 1 h (Methods) or 37 C 30 min (Results)
Sequence (P08962 2-238): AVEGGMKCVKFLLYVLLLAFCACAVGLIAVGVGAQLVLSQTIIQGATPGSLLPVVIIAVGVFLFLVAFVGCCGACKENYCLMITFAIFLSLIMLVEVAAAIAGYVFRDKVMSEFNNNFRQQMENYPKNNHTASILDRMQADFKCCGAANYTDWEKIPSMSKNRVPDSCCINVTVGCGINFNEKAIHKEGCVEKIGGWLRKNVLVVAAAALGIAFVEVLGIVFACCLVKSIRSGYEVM
measure: Kd (nM)
I only need the number, in nM, no unit after it.

Return Kd measured with CD63 on MDA-MB-231 cells (UniProt P08962) given this sequence: TAACACGACAGACGTTCGGAGGTCGAACCCTGACAGCGTGGGC [CD63-1 FAM]
96.9

* * *

system: CD63-negative HEK293T cells; experiment: flow cytometry; details: PBS pH 7.4, 2.0 mM MgCl2, 0.02% Tween 20, 100 ug/mL salmon sperm DNA, ELISA 0.5 h, cells at RT 1 h (Methods) or 37 C 30 min (Results)
measure: Kd

What measured Kd is associated with TAACACGACAGACGTTCGGAGGTCGAACCCTGACAGCGTGGGC [CD63-1 FAM] on CD63-negative HEK293T cells?
> 1000 nM
